- Study target: HIV-1 gp41 (strain HXB2) (HIV-1 strain HXB2, UniProt P04578 512-856)
- Run description: cell-based or functional assay
Assay endpoint: IC50, anti-viral activity against HIV-HXB2 (nM)
API: value field is a number in nM; no unit string.

Q: Fill in the blank: the reported IC50, anti-viral activity against HIV-HXB2 of ac-C(Acm)(thioIZN17)3 (N-terminal acetyl (from bromoacetyl) joined by a thioether bond to a Cys of the CC chain; N-terminal acetyl; Cys1 thiol protected with acetamidomethyl (Acm); Ttds linker between Cys1 and Cys2; Cys2 and Cys3 each joined by a thioether bond to the N-terminal acetyl of a GGGIZN17 chain) peptide 1: CCCGGIKKEIEAIKKEQEAIKKKIEAIEKLLQLTVWGIKQLQARIL peptide 2: GGGIKKEIEAIKKEQEAIKKKIEAIEKLLQLTVWGIKQLQARIL is ____.
Result: 0.24

Reference for the values: patent US20070224212A1
